- procedure.summary: NCI Yeast Anticancer Drug Screen. Data for the mlh1 rad18 strain (AID 175)
- experimental.conditions: S. cerevisiae mlh1 rad18 strain growth inhibition; at 50.0 µM
This is part of a sample that, as a whole, favours compounds with a hit. Of some 79,000 tested, about 15% had one in any assay. Active and inactive are the calls of the source. Cut-off read from the data, not from the text of the source: active = growth inhibition above about 70%; inactive = the rest.
Return exactly one item of active, inactive

Below, 3 compounds whose answers are already recorded.
CC(O)C(=O)N(CCO)CCO (centres undefined)    inactive
O=C(NC1CCCCC1Cl)C1CCCCC1 (centres undefined)    inactive
Cc1ccc(O)c(C(=O)C[n+]2ccccc2)c1    inactive

Request: Name the outcome recorded for CCOc1ccc(N=C2C=C(Nc3ccc(OCC)cc3)C(=Nc3ccc(OCC)cc3)C=C2Nc2ccc(OCC)cc2)cc1 in the assay.
Result: inactive

Request: Name the outcome recorded for O=C1c2cc3ccccc3cc2NC(O)c2cccn21 (centres undefined) in the assay.
Result: inactive

Request: Name the outcome recorded for c1ccc2cc(CNCCCCNCCCNCc3ccc4ccccc4c3)ccc2c1 in the assay.
Result: active

Request: Name the outcome recorded for O=c1[nH]n(CCc2ccccc2CCl)c2ccc([N+](=O)[O-])cc12 in the assay.
Result: inactive

Request: Name the outcome recorded for CC(C)=CCS(=O)c1ccccc1NC1=CC(=O)CC(C)(C)C1 (centres undefined) in the assay.
Result: inactive

* * *

- procedure.summary: NCI Yeast Anticancer Drug Screen. Data for the bub3 strain (AID 167)
- experimental.conditions: S. cerevisiae bub3 mutant strain, at 50.0 µM, stronger effect = higher value
About 79,000 compounds went through this panel and 15% of them were active in at least one assay; those are over-represented in the sample as a whole. Where a SMILES comes first, the peptide text is derived from it. The star is where a group is joined. Boc = CC(C)(C)OC(=O)*
quantity.measured: growth inhibition (%)
Field format: number, assumed %, no unit text.

CNc1ccc(C(=O)N(C(=O)NC2CCCCC2)C2CCCCC2)cc1    -1.95
CC(C)C1C(O)C23CCC4C(C)(CO)CCCC4(C)C2CC13 (centres undefined)    -24.1
N#Cc1ccc(OCc2nc(N)nc(N)c2-c2ccc(Cl)cc2)cc1    20.8
O=S(=O)(O/C(=C(\OS(=O)(=O)C(F)(F)F)c1ccccc1)c1ccccc1)C(F)(F)F    -2.65
C=CCc1ccc(OC(=O)Nc2ccccc2)c(OC)c1    33.5
CNC(=O)CNC(=O)C(NC(=O)CNC(=O)C1CCCN1C(=O)C(C)NC(=O)C(NC(=O)OC(C)(C)C)C(C)C)C(C)C (centres undefined) (Boc-VAPGVG-NHMe; configuration not given here)    -16.2

Request: Can you look up the measured growth inhibition of O=C1CCC2c3ccccc3NCN12 (centres undefined) for me?
Result: -15.2

Request: Can you look up the measured growth inhibition of CC(=O)n1c2ccccc2c2nc3ccccc3nc21 for me?
Result: -19.6

Request: Can you look up the measured growth inhibition of CCCC1(c2ccccc2)SCC(=O)NC1=O (centres undefined) for me?
Result: -14.2

Request: Can you look up the measured growth inhibition of CCOC(=O)CCCN(c1ccc(OC)c(OC)c1)S(=O)(=O)c1ccc(C)cc1 for me?
Result: 16.4

Request: Can you look up the measured growth inhibition of COc1ccc(-c2c(C#N)c(S)n(NS(=O)(=O)c3ccccc3)c(=O)c2C#N)cc1 for me?
Result: 34

Request: Can you look up the measured growth inhibition of NCCSCCN for me?
Result: 13.2

Request: Can you look up the measured growth inhibition of CN(C)c1nnnn1-c1c(N)n(C)c(=O)n(C)c1=O for me?
Result: -26.8

Request: Can you look up the measured growth inhibition of CCC(=O)C(C)C1=Nc2nnc(CCCCCCCc3nnc4n3C(=O)C(C(C)C(=O)CC)=N4)n2C1=O (centres undefined) for me?
Result: -3.05
